Target: USP9X (UniProt Q93008)
Sequence (Q93008 whole entry, the tested form may be a part): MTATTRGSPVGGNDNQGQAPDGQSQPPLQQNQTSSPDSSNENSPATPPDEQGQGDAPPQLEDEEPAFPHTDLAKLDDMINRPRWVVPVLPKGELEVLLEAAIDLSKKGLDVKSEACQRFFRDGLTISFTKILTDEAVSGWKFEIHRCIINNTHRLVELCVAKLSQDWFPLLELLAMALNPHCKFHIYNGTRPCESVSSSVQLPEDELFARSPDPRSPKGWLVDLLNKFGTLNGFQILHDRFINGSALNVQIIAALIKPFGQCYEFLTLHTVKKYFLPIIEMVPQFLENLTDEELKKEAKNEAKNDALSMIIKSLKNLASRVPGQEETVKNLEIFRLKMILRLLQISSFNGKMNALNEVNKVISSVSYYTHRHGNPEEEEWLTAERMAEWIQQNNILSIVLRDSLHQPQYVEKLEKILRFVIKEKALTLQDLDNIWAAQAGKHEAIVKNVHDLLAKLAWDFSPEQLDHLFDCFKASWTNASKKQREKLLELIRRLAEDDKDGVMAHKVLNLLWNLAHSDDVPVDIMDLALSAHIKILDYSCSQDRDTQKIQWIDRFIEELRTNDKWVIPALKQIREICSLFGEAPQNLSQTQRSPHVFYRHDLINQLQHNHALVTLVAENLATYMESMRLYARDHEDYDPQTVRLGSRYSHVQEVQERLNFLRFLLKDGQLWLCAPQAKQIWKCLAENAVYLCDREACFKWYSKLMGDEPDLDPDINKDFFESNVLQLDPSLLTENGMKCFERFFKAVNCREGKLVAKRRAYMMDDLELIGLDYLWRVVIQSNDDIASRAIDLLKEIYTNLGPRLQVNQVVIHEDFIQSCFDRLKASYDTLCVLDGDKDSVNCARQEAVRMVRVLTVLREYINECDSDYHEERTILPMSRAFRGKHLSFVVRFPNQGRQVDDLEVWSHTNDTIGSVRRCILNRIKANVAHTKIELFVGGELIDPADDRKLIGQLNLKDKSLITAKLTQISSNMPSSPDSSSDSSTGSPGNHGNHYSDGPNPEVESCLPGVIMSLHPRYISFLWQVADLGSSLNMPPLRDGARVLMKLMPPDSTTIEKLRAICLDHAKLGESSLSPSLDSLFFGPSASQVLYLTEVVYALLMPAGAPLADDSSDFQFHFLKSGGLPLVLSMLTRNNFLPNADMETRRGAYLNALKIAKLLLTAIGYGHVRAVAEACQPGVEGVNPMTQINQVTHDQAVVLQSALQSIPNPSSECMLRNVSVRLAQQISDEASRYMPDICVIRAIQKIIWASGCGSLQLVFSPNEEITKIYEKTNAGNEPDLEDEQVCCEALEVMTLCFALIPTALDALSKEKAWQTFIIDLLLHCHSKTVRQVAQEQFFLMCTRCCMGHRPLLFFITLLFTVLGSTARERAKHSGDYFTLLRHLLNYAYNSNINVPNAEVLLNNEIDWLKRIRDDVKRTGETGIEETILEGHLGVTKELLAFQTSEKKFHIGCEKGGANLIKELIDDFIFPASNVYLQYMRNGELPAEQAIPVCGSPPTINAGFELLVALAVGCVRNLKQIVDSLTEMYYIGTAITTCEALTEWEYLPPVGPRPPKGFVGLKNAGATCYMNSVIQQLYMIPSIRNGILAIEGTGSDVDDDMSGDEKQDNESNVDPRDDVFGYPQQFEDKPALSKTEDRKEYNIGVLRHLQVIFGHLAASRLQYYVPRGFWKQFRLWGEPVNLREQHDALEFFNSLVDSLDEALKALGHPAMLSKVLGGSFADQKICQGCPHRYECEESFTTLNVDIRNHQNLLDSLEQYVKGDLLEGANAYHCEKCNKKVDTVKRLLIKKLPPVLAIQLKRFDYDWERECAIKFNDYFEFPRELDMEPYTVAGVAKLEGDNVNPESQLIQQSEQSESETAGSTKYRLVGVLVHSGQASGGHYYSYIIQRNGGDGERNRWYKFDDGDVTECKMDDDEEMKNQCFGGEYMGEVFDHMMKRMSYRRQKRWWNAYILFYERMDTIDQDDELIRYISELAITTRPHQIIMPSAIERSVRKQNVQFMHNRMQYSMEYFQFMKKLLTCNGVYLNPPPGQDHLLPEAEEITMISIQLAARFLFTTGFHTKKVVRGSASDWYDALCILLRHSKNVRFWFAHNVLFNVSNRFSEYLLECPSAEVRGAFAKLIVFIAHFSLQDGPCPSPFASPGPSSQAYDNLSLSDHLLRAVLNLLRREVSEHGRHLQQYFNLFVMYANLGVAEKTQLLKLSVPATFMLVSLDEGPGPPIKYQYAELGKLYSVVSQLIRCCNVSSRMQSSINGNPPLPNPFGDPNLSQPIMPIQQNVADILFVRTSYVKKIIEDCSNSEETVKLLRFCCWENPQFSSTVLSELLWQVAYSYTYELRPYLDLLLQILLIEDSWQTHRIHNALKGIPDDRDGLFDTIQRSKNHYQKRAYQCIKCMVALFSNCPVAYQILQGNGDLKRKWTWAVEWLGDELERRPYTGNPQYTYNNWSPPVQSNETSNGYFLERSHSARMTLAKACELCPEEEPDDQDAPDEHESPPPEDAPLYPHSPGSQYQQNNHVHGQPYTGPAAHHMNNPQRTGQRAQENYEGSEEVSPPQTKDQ
Experiment: log2 ratio of Biotin-Ahx-Ub-VS probe labelling (fragment/DMSO); higher = less target engagement (more negative = stronger competition), active = hit call of the paper (q ≤ 0.05, log2 ratio ≤ -1)
Settings: compound concentration: 200 uM; treatment time: 3 h
Recorded log2 ratio of Biotin-Ahx-Ub-VS probe labelling split into classes low bracket: < -0.3; middle bracket: ≥ -0.3 and < -0.08; high bracket: ≥ -0.08

Hello team, could you let me know which band the following compound falls into: "O=C(CCl)Nc1ccccc1C(F)(F)F"
high bracket

Hello team, could you let me know which band the following compound falls into: CC(NC(=O)CCl)c1cccc(Cl)c1 (stereo not drawn)
low bracket

Hello team, could you let me know which band the following compound falls into: "O=C(CCl)N1CCC(c2noc3cc(F)ccc23)CC1"
middle bracket

Hello team, could you let me know which band the following compound falls into: "O=C(CCl)N1CCC(OCc2ccccc2F)CC1"
high bracket

Hello team, could you let me know which band the following compound falls into: "O=C(CCl)NC1(c2ccc3c(c2)OCCO3)CCCC1"
low bracket

Hello team, could you let me know which band the following compound falls into: CCC1c2ccsc2CCN1C(=O)CCl (stereo not drawn)
low bracket

Hello team, could you let me know which band the following compound falls into: "Cc1c(C#N)c(NC(=O)CCl)n(Cc2ccco2)c1C"
middle bracket

Hello team, could you let me know which band the following compound falls into: "COc1ccc(CN(C)C(=O)CCl)cc1"
middle bracket

Hello team, could you let me know which band the following compound falls into: "Cc1nc(-c2cccc(NC(=O)CCl)c2)cs1"
low bracket

Hello team, could you let me know which band the following compound falls into: O=C(CCl)N1CCC(C(O)c2ccc(F)cc2)CC1 (stereo not drawn)
high bracket

Hello team, could you let me know which band the following compound falls into: "COc1ccc(-c2csc(NC(=O)CCl)n2)cc1"
low bracket

Hello team, could you let me know which band the following compound falls into: CC(NC(=O)CCl)c1ccc2[nH]ncc2c1 (stereo not drawn)
low bracket

Hello team, could you let me know which band the following compound falls into: "Cc1nc(CC2CCN(C(=O)CCl)CC2)no1"
low bracket

Hello team, could you let me know which band the following compound falls into: "Cc1ccccc1OCC(=O)N1CCN(C(=O)CCl)CC1"
high bracket

Hello team, could you let me know which band the following compound falls into: CC1(NC(=O)CCl)CCS(=O)(=O)C1 (stereo not drawn)
low bracket

Hello team, could you let me know which band the following compound falls into: CC(=O)C1CCCCN1C(=O)CCl (stereo not drawn)
high bracket

Hello team, could you let me know which band the following compound falls into: "N#Cc1ccc(CNC(=O)CCl)cc1"
high bracket

Hello team, could you let me know which band the following compound falls into: "O=C(CCl)N1CCc2sccc2C1"
middle bracket

Hello team, could you let me know which band the following compound falls into: "O=C(CCl)N1CCC(C(=O)N2CCCC2)CC1"
high bracket

Hello team, could you let me know which band the following compound falls into: "Cc1cccc(NC(=O)CCl)c1C"
middle bracket

Hello team, could you let me know which band the following compound falls into: "O=C(CCl)Nc1cc(Cl)ccc1C(=O)O"
middle bracket

Hello team, could you let me know which band the following compound falls into: NC(=O)C(Cc1ccccc1)NC(=O)CCl (stereo not drawn)
middle bracket

Hello team, could you let me know which band the following compound falls into: CCN(C(=O)CCl)C1CCS(=O)(=O)C1 (stereo not drawn)
middle bracket

Hello team, could you let me know which band the following compound falls into: "N#Cc1ccc(Cl)cc1NC(=O)CCl"
high bracket

Hello team, could you let me know which band the following compound falls into: "Cc1ccc(N(CCC#N)C(=O)CCl)cc1C"
low bracket

Hello team, could you let me know which band the following compound falls into: "CS(=O)(=O)c1ccc(NC(=O)CCl)cc1"
low bracket

Hello team, could you let me know which band the following compound falls into: Cc1cccc(C(CNC(=O)CCl)N2CCOCC2)c1.Cl (stereo not drawn)
high bracket

Hello team, could you let me know which band the following compound falls into: "CN1C(=O)c2ccc(NC(=O)CCl)cc2C1=O"
middle bracket

Hello team, could you let me know which band the following compound falls into: "Cl.O=C(CCl)N1CCC(n2nc3ccccc3n2)CC1"
low bracket

Hello team, could you let me know which band the following compound falls into: "Cc1nc(CN2CCN(C(=O)CCl)CC2)cs1"
middle bracket

Hello team, could you let me know which band the following compound falls into: "O=C(CCl)NCCC1=CCCCC1"
high bracket

Hello team, could you let me know which band the following compound falls into: "O=C(CCl)N1CCC(=C(F)CO)C1"
high bracket

Hello team, could you let me know which band the following compound falls into: "C[C@H]1CN(C(=O)CCl)CCN1C(=O)c1cnn(C)c1.Cl"
middle bracket

Hello team, could you let me know which band the following compound falls into: O=C(CCl)N1CCc2nc[nH]c2C1c1ccc(Cl)cc1 (stereo not drawn)
low bracket

Hello team, could you let me know which band the following compound falls into: Cc1cccc(N2CCC(NC(=O)CCl)C2=O)c1 (stereo not drawn)
low bracket

Hello team, could you let me know which band the following compound falls into: "C[C@@H](NC(=O)CCl)c1cccc(C#N)c1"
middle bracket

Hello team, could you let me know which band the following compound falls into: Cl.O=C(CCl)N1CCCC(c2ncc[nH]2)C1 (stereo not drawn)
middle bracket

Hello team, could you let me know which band the following compound falls into: O=C(CCl)NC1CCOc2ccccc21 (stereo not drawn)
low bracket

Hello team, could you let me know which band the following compound falls into: Cc1nnc(C(NC(=O)CCl)c2ccccc2)n1C (stereo not drawn)
high bracket

Hello team, could you let me know which band the following compound falls into: "CN(C)C(=O)c1ccc(CNC(=O)CCl)cc1"
high bracket

Hello team, could you let me know which band the following compound falls into: "Cl.O=C(CCl)N1CCN(Cc2ccccc2)CC1"
low bracket

Hello team, could you let me know which band the following compound falls into: COc1ccc(C2CCCN2C(=O)CCl)c(OC)c1 (stereo not drawn)
middle bracket

Hello team, could you let me know which band the following compound falls into: "O=C(CCl)N1CCN(C(=O)N2CCCCC2)CC1"
low bracket

Hello team, could you let me know which band the following compound falls into: "Cc1cccn2cc(CCNC(=O)CCl)nc12.Cl"
middle bracket

Hello team, could you let me know which band the following compound falls into: CN1c2ccccc2C(NC(=O)CCl)CS1(=O)=O (stereo not drawn)
middle bracket

Hello team, could you let me know which band the following compound falls into: "O=C(CCl)NCc1ccc(Cl)cc1"
high bracket

Hello team, could you let me know which band the following compound falls into: O=C(CCl)N1CCCC1c1ccsc1 (stereo not drawn)
middle bracket

Hello team, could you let me know which band the following compound falls into: "CCc1c[nH]c(CNC(=O)CCl)n1.Cl"
middle bracket

Hello team, could you let me know which band the following compound falls into: "COc1cccc(CN(C)C(=O)CCl)c1"
high bracket

Hello team, could you let me know which band the following compound falls into: "O=C(CCl)Nc1cccc(NC(=O)c2ccccc2)c1"
high bracket

----------
Target: OTUD5 (UniProt Q96G74)
Sequence (Q96G74 whole entry, the tested form may be a part): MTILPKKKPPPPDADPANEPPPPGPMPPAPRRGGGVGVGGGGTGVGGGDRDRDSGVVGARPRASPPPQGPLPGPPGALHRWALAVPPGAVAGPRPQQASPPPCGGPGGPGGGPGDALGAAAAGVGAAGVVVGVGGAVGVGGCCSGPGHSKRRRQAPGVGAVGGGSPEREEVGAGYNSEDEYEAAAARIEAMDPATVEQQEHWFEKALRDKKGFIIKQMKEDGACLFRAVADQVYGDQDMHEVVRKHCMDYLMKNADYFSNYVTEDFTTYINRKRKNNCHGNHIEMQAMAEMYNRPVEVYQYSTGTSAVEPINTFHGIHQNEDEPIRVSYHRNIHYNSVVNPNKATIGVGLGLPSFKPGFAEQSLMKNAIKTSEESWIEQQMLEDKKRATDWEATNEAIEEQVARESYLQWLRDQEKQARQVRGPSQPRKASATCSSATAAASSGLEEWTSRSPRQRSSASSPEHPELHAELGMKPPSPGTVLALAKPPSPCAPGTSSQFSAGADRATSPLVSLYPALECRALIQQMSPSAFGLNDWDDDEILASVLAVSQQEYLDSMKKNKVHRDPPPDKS
Experiment: log2 ratio of Biotin-Ahx-Ub-VS probe labelling (fragment/DMSO); higher = less target engagement (more negative = stronger competition), active = hit call of the paper (q ≤ 0.05, log2 ratio ≤ -1)
Conditions: compound concentration: 200 uM; treatment time: 3 h
Recorded log2 ratio of Biotin-Ahx-Ub-VS probe labelling split into classes low bracket: < -0.4; middle bracket: ≥ -0.4 and < -0.2; high bracket: ≥ -0.2

Hello team, could you let me know which band the following compound falls into: "Cc1ncc2c(n1)CCN(C(=O)CCl)C2"
low bracket

Hello team, could you let me know which band the following compound falls into: O=C(CCl)NC1CCC(C(F)(F)F)CC1 (configuration not stated)
middle bracket

Hello team, could you let me know which band the following compound falls into: "Cc1cc(NC(=O)CCl)n(-c2ccccc2)n1"
middle bracket

Hello team, could you let me know which band the following compound falls into: O=C(CCl)N1CCOCCC1c1ccccc1 (configuration not stated)
high bracket

Hello team, could you let me know which band the following compound falls into: "Cc1ccccc1OCC(=O)N1CCN(C(=O)CCl)CC1"
high bracket

Hello team, could you let me know which band the following compound falls into: "O=C(CCl)NCc1ccc(Cl)cc1"
high bracket

Hello team, could you let me know which band the following compound falls into: CC1CCc2onc(CNC(=O)CCl)c2C1 (configuration not stated)
high bracket

Hello team, could you let me know which band the following compound falls into: "COc1ccc(Cl)cc1NC(=O)CCl"
low bracket

Hello team, could you let me know which band the following compound falls into: COc1ccc(C2CCCN2C(=O)CCl)c(OC)c1 (configuration not stated)
high bracket

Hello team, could you let me know which band the following compound falls into: "O=C(CCl)Nc1nnc(CC(F)(F)F)o1"
middle bracket

Every entry's value here was drawn from the supplement of paper PMC11732987.
